- Test system: Plasmodium falciparum
- assay text: Screen against P. falciparum Asexual Blood Stage (ABS), at 5uM
- Type: functional, Dd2
- assay setup: tested at 5 uM
Out of some 65,000 compounds screened, about 2,100 (3.2%) showed an effect of 50% or more. The median lay at about -52%. This is one part of a sample in which strong results are shown more often than they occur.
recorded endpoint: INHIBITION
Numeric answer plus unit only.

Consider the following illustrative entries.
[
  {
    "compound": "c1cnc(NC[C@H]2OC[C@@H]3CCN(Cc4cccnc4)C[C@@H]32)nc1",
    "INHIBITION": "-37.6%"
  },
  {
    "compound": "COCCN1CCN(c2ccc(C)nn2)Cc2cccnc21",
    "INHIBITION": "-2.72%"
  },
  {
    "compound": "Cc1cccc(CN2CCCCC23CCNC3)n1 (stereo unspecified)",
    "INHIBITION": "25.4%"
  },
  {
    "compound": "CCc1noc(C(C)N2CCN(CC)CC2)n1 (stereo unspecified)",
    "INHIBITION": "-70%"
  },
  {
    "compound": "Cc1ccc([C@]2(O)CC[C@H]3CN(Cc4cccnc4)C[C@H]32)nc1",
    "INHIBITION": "-61.7%"
  }
]

## Task Look up INHIBITION for this compound: CCc1ocnc1C(=O)N1CCC2(CC1)OCC(C)O2 (stereo unspecified)
## Result -79.3%

## Task Look up INHIBITION for this compound: Fc1cccc(C(NCc2ncc[nH]2)c2ccccn2)c1 (stereo unspecified)
## Result 91.8%

----------
- Tested on: Plasmodium falciparum
- assay text: Screen against P. falciparum Asexual Blood Stage (ABS), at 5uM
- Type: functional, Dd2
- assay setup: tested at 5 uM
The whole screen tested about 65,000 compounds, of which about 2,100 (3.2%) showed an effect of 50% or more. The median lay at about -52%. Only a selection was taken, and strong results are over-represented in it overall.
recorded endpoint: INHIBITION (%)
Give just the number in %; leave the unit off.

[
  {
    "molecule": "CC(C)(C)c1nc(CNC2CCCN(c3cccnn3)C2)no1 (centres undefined)",
    "recorded endpoint": "INHIBITION",
    "value measured": 83
  },
  {
    "molecule": "Cc1ncsc1CN1CC[C@H]2C[C@H](c3ccncn3)O[C@@H]2C1",
    "recorded endpoint": "INHIBITION",
    "value measured": -37.3
  },
  {
    "molecule": "Cn1cc(CN2CCCC(CCc3c(F)cccc3F)C2)cn1 (centres undefined)",
    "recorded endpoint": "INHIBITION",
    "value measured": 79.3
  },
  {
    "molecule": "CCCN1CC[C@@H]2OC[C@H](C(=O)Nc3cccnc3)C[C@@H]2C1",
    "recorded endpoint": "INHIBITION",
    "value measured": -131
  },
  {
    "molecule": "O=C(C1CCOCC1)N1C[C@@H]2CC[C@H]1CN(Cc1ccncc1)C2",
    "recorded endpoint": "INHIBITION",
    "value measured": -111
  },
  {
    "molecule": "O=C(c1scc2c1OCCO2)N1CCOC(CCc2ccccc2)C1 (centres undefined)",
    "recorded endpoint": "INHIBITION",
    "value measured": 88.7
  },
  {
    "molecule": "CC(C)N1CCC(N(C)c2ccnc(N(C)C)n2)CC1",
    "recorded endpoint": "INHIBITION",
    "value measured": 39.1
  },
  {
    "molecule": "CCC(=O)N1CCC2(CC1)C(=O)N(Cc1cccnc1)CCN2C",
    "recorded endpoint": "INHIBITION",
    "value measured": 0.961
  }
]

## Task Look up INHIBITION for this molecule: Cc1nn(C2CCCC2)c2c1C(c1ccc3c(c1)OCO3)SCC(=O)N2 (centres undefined)
## Result 6.36

## Task Look up INHIBITION for this molecule: Cc1cccc(CN2CCCC(O)(CNCc3ncccc3C)C2=O)c1 (centres undefined)
## Result 82.1

## Task Look up INHIBITION for this molecule: CC(C)(C)c1nc(CN(Cc2cccnc2)C2CN3CCC2CC3)no1 (centres undefined)
## Result -29.7

----------
- Test system: Plasmodium falciparum
- assay text: Screen against P. falciparum Asexual Blood Stage (ABS), at 5uM
- Format: functional, Dd2
- assay setup: tested at 5 uM
Among all 65,000 compounds or so, about 2,100 (3.2%) showed an effect of 50% or more. The median lay at about -52%. This is one part of a sample in which strong results are shown more often than they occur.
So basically every entry gets a class from its INHIBITION, ranges being lowest: < -40%; middle: ≥ -40% and < 80%; highest: ≥ 80%

Examples from the recorded data:
[
  {
    "compound": "CCc1noc(CC)c1CC(=O)N1CCCC(N2CCCCC2)C1 (stereo unspecified)",
    "classification": "middle"
  },
  {
    "compound": "CCS(=O)(=O)c1nnc([C@@H](N)Cc2ccccc2)o1",
    "classification": "lowest"
  },
  {
    "compound": "COc1ccc(C(NCc2cccc(O)c2)C2CC2)cc1 (stereo unspecified)",
    "classification": "highest"
  },
  {
    "compound": "NC1CCCCN(Cc2cc(-c3ccccc3OC(F)(F)F)no2)C1 (stereo unspecified)",
    "classification": "middle"
  },
  {
    "compound": "Cc1cccc(CN2C(=O)C[C@H]3[C@@H]2CCN3Cc2nccs2)n1",
    "classification": "middle"
  },
  {
    "compound": "Cc1cnc(Nc2cccc(C3CCCN3Cc3cn(C)nc3C)n2)s1 (stereo unspecified)",
    "classification": "highest"
  },
  {
    "compound": "c1cc(COC[C@]23COC[C@H]2CN(CC2CCC2)C3)ccn1",
    "classification": "lowest"
  },
  {
    "compound": "Cc1ccccc1CN1CCCC1c1cccc(Nc2nccs2)n1 (stereo unspecified)",
    "classification": "highest"
  },
  {
    "compound": "COc1ccc(CC(C)Nc2cccc(F)c2)cc1 (stereo unspecified)",
    "classification": "lowest"
  }
]

Next:
## Task Each compound maps to one class by INHIBITION. Which class for "CN(C)c1nc2c(c(N(C)Cc3n[nH]c4c3CCCC4)n1)CCNCC2" ?
## Result highest

----------
- System: Plasmodium falciparum
- assay text: Screen against P. falciparum Asexual Blood Stage (ABS), at 5uM
- Type: functional, Dd2
- assay setup: tested at 5 uM
About 2,100 (3.2%) of roughly 65,000 compounds showed an effect of 50% or more. The median lay at about -52%. The sample as a whole holds a higher share of strong results than the screen did.
Property: INHIBITION; scope: individual compounds
Give just the number in %; leave the unit off.

Consider the following illustrative entries.
[
  {
    "compound": "O=C(NCc1ccccn1)[C@@H]1COC[C@H]2CNC[C@H]21",
    "INHIBITION (%)": -8.97
  },
  {
    "compound": "CN(C)Cc1cncc2c1CCN(C1CCOCC1)C2",
    "INHIBITION (%)": -179
  },
  {
    "compound": "CN1C(Cn2cccn2)C[C@@H]2CN(Cc3cccnc3)CC[C@@H]21 (stereo not given in full)",
    "INHIBITION (%)": 11.2
  },
  {
    "compound": "Cc1noc(C)c1CN1CCO[C@H]2CN(C(=O)N3CCCC3)C[C@H]21",
    "INHIBITION (%)": -14.9
  },
  {
    "compound": "CC(C)N1[C@H](CN2CCCC2)C[C@@H]2CN(Cc3ccoc3)CC[C@@H]21",
    "INHIBITION (%)": 76.2
  },
  {
    "compound": "CC(C)N1[C@H](Cn2cncn2)C[C@@H]2CN(c3ncccn3)CC[C@@H]21",
    "INHIBITION (%)": -58.2
  },
  {
    "compound": "CN(C)[C@@H]1CN(C(=O)Cc2ccc(F)cc2)[C@@H]2CCCO[C@H]12",
    "INHIBITION (%)": -29.9
  },
  {
    "compound": "O=C(NCC1CC1)[C@H]1C[C@@H]2[C@@H](C1)OCCN2Cc1cccnc1",
    "INHIBITION (%)": -29.4
  }
]

## Task Look up INHIBITION for this compound: "O=C(c1cccnc1)N1C[C@@H]2OCCN(CCN3CCCC3)[C@@H]2C1"
## Result -134

## Task Look up INHIBITION for this compound: COc1c(C2SCC(=O)Nc3[nH]ncc32)cc2c(c1OC)OCO2 (stereo not given)
## Result -32.3

Sourced from ChEMBL document CHEMBL4513216
